Every entry's value here was drawn from paper PMC5681660.

Target: human NTCP (Homo sapiens)
Sequence (Q14973 whole entry): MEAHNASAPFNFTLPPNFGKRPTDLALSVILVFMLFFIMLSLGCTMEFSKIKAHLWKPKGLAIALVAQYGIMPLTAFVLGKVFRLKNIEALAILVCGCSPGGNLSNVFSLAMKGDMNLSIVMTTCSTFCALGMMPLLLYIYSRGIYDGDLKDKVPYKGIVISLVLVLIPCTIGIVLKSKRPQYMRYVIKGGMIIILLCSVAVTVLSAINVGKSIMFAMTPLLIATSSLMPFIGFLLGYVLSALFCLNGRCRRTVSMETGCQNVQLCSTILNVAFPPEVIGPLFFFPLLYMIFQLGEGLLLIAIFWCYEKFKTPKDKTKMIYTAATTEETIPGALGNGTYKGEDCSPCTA
Assay: Screening taurocholate uptake assay (96-well, [14C]taurocholate, 10 µM drug)
Structures can show the parent of a compound that is named as a salt.
parameter_measured: Ranking score

compound: COc1cc2nc(N3CCN(C(=O)C4COc5ccccc5O4)CC3)nc(N)c2cc1OC (stereo not shown) [Doxazosin mesylate]
parameter_measured: Ranking score
result: 599.787
--
compound: CCCSc1ccc2nc(NC(=O)OC)[nH]c2c1
parameter_measured: Ranking score
result: 731.855
--
compound: O=[N+]([O-])O[C@H]1CO[C@H]2[C@@H]1OC[C@H]2O[N+](=O)[O-] [Isosorbide dinitrate]
parameter_measured: Ranking score
result: 973.944
--
compound: C[C@]12CC[C@@H](O)C[C@H]1CC[C@@H]1[C@@H]2CC[C@]2(C)C(=O)CC[C@@H]12 [3-alpha-Hydroxy-5-beta-androstan-17-one]
parameter_measured: Ranking score
result: 235.83
--
compound: Cc1cccc(C)c1N=C1NCCCS1
parameter_measured: Ranking score
result: 404.611
--
compound: C[C@]12CC[C@H]3[C@@H](CCC4=CC(=O)CC[C@@H]43)[C@@H]1CC[C@@H]2O
parameter_measured: Ranking score
result: 852.366
--
compound: C[C@]12CC[C@H](O)C[C@@H]1CC[C@@H]1[C@@H]2CC[C@]2(C)C(=O)CC[C@@H]12 [Epiandrosterone]
parameter_measured: Ranking score
result: 1232.82
--
compound: COc1ccnc(C[S+]([O-])c2nc3ccc(OC(F)F)cc3[nH]2)c1OC (stereo not shown) [Pantoprazole sodium]
parameter_measured: Ranking score
result: 878.449
--
compound: CCCC(C)C1(CC)C(=O)NC(=O)NC1=O (stereo not shown)
parameter_measured: Ranking score
result: 697.378
--
compound: C[C@]12C[C@H]3S[C@H]3C[C@@H]1CC[C@@H]1[C@@H]2CC[C@]2(C)[C@@H](O)CC[C@@H]12 [Epitiostanol]
parameter_measured: Ranking score
result: 1032.88
--
compound: C[C@]12CC[C@@H](O)C[C@@H]1CC[C@@H]1[C@@H]2CC[C@]2(C)C(=O)CC[C@@H]12
parameter_measured: Ranking score
result: 969.912
--
compound: CC(N)C(O)c1ccccc1 (stereo not shown) [Phenylpropanolamine hydrochloride]
parameter_measured: Ranking score
result: 449.533
--
compound: CC(C)Cn1cnc2c(N)nc3ccccc3c21
parameter_measured: Ranking score
result: 554.076
--
compound: CCOc1ccccc1OCC1CNCCO1 (stereo not shown) [Viloxazine hydrochloride]
parameter_measured: Ranking score
result: 214.483
--
compound: CNCCC(Oc1ccccc1OC)c1ccccc1 (stereo not shown) [Nisoxetine hydrochloride]
parameter_measured: Ranking score
result: 324.321
--
compound: COc1cccc2c1C(=O)c1c(O)c3c(c(O)c1C2=O)C[C@@](O)(C(=O)CO)C[C@@H]3O[C@H]1C[C@H](N)[C@@H](O)[C@H](C)O1 [Epirubicin hydrochloride]
parameter_measured: Ranking score
result: 915.844

---

Target: human NTCP (Homo sapiens)
Test: Screening taurocholate uptake assay (96-well, [14C]taurocholate, 10 µM drug)
Settings: combined ranking of functional and binding screening assays
Counter-ions that a name gives are not always drawn.
Binary call on Ranking score: 1.0 from 600 upward, 0.0 beneath that.

compound: C#CCN(C)[C@H](C)Cc1ccccc1 [Selegiline hydrochloride]
category: 0.0

compound: CC(C)(Oc1ccc(C2CC2(Cl)Cl)cc1)C(=O)O (centres unmarked) [Ciprofibrate]
category: 0.0

compound: CC(Oc1c(Cl)cccc1Cl)C1=NCCN1 (centres unmarked) [Lofexidine]
category: 1.0

compound: CC1CCc2c(N3CCC(O)CC3)c(F)cc3c(=O)c(C(=O)O)cn1c23 (centres unmarked) [Nadifloxacin]
category: 1.0

compound: COc1ccc(C(=O)NCc2ccc(OCCN(C)C)cc2)cc1OC [Itopride]
category: 0.0

compound: OCCN1C[C@H](O)[C@@H](O)[C@H](O)[C@H]1CO [Miglitol]
category: 0.0

compound: CN(CCCN1c2ccccc2CCc2ccccc21)CC(=O)c1ccc(Cl)cc1 [Lofepramine]
category: 0.0

compound: NC(=NCc1ccccc1)NC(=O)c1nc(Cl)c(N)nc1N [Benzamil hydrochloride]
category: 0.0

compound: COc1cc(C(=O)OCCCN2CCCN(CCCOC(=O)c3cc(OC)c(OC)c(OC)c3)CC2)cc(OC)c1OC.Cl.Cl [Dilazep dihydrochloride]
category: 1.0

compound: CC[N+](CC)(CC)CCC(O)(c1ccccc1)C1CCCCC1.[Cl-] (centres unmarked) [Tridihexethyl chloride]
category: 0.0

compound: CC(C)NCC(O)c1cc(O)cc(O)c1.CC(C)NCC(O)c1cc(O)cc(O)c1.O=S(=O)(O)O (centres unmarked)
category: 0.0

compound: CN1[C@@H]2CC[C@H]1C[C@@H](OC(=O)c1c[nH]c3ccccc13)C2 [Tropisetron HCl]
category: 0.0

compound: COc1ccc(CCN)cc1OC [Homoveratrylamine]
category: 0.0

compound: CC(NC(C)(C)C)C(=O)c1cccc(Cl)c1 (centres unmarked) [Bupropion hydrochloride]
category: 0.0

compound: NCc1ccccc1CC(=O)N[C@@H]1C(=O)N2C(C(=O)O)=C(CSc3nnnn3CC(=O)O)CS[C@H]12 [Ceforanide]
category: 1.0

compound: Oc1ccc(OCc2ccccc2)cc1 [Monobenzone]
category: 0.0

compound: C=C1CC[C@@]2(O)[C@H]3Cc4ccc(O)c5c4[C@@]2(CCN3CC2CC2)[C@H]1O5 [Nalmefene hydrochloride]
category: 1.0

compound: CCc1nc(N)nc(N)c1-c1ccc(Cl)cc1 [Pyrimethamine]
category: 1.0

compound: NC(N)=NCc1cccc(I)c1.NC(N)=NCc1cccc(I)c1.O=S(=O)(O)O [Iobenguane sulfate]
category: 1.0

compound: COc1ccc(-c2ccc3cc(C(=O)O)ccc3c2)cc1C12CC3CC(CC(C3)C1)C2 [Adapalene]
category: 1.0

compound: NCCc1c[nH]cn1 [Histamine dihydrochloride]
category: 0.0

compound: C[C@@H](O)[C@H]1C(=O)N2C(C(=O)O)=C(SCCN=CN)C[C@H]12 [Imipenem]
category: 1.0

compound: CC(=O)Oc1ccccc1C(=O)O [Acetylsalicylic acid]
category: 1.0

compound: CCCC1O[C@@H]2C[C@H]3[C@@H]4CCC5=CC(=O)C=C[C@]5(C)[C@H]4[C@@H](O)C[C@]3(C)[C@]2(C(=O)CO)O1 (some centres unmarked) [Budesonide]
category: 1.0

compound: O=C(O)Cc1ccccc1Nc1c(Cl)cccc1Cl [Diclofenac sodium]
category: 0.0

compound: C[C@]12N[C@H](Cc3ccccc31)c1ccccc12 [Dizocilpine maleate]
category: 0.0

compound: CN(C)C(=O)Oc1ccc[n+](C)c1.[I-] [Pyridostigmine iodide]
category: 1.0

compound: CN1CCCC(CC2c3ccccc3Sc3ccccc32)C1 (centres unmarked) [Metixene hydrochloride]
category: 0.0

compound: CN(C)C(=O)Oc1cc(OC(=O)N(C)C)cc(C(O)CNC(C)(C)C)c1.Cl (centres unmarked) [Bambuterol hydrochloride]
category: 0.0
